Where these numbers come from: patent US20070172509A1

assay: Film morphology of agent in PLGA 85/15 film cast from anisole; assay type: physicochemical; design: key: A—Amorphous; D—Dispersion; C—Crystalline; conditions: 50% agent in PLGA 85/15 film cast from anisole
result_type: Film Morphology

The compound listed as CC[C@@H]1/C=C(\C)C[C@H](C)C[C@H](OC)[C@H]2O[C@@](O)(C(=O)C(=O)N3CCCC[C@H]3C(=O)O[C@H](/C(C)=C/[C@@H]3CC[C@H](Cl)[C@H](OC)C3)[C@H](C)[C@@H](O)CC1=O)[C@H](C)C[C@@H]2OC [Pimecrolimus, reference compound] shows Film Morphology equal to C

The compound listed as CCCCOC(=O)c1ccc(O)cc1 [Butyl 4-Hydroxybenzoate] shows Film Morphology equal to C

The compound listed as CCCOC(=O)c1ccc(O)cc1 [Propyl 4-hydroxybenzoate] shows Film Morphology equal to C

The compound listed as Cc1cc(C(C)(C)C)c(O)c(C(C)(C)C)c1 [BHT, butylated hydroxy toluene] shows Film Morphology equal to D
